FYI, the data here is from patent US20240009190A1.

- System: CT-26 WT cells
- Protocol description: CT-26 WT subcutaneous tumor model, CHK inhibitors at lower dose with anti-m-PD-1 antibody (Example 2)
- Format: in vivo, BALB/c female mice
- Measurement setup: Day 16; compounds 15 mg/kg tail vein once per day; anti-m-PD-1 10 mg/kg IP once every five days
Experimental readout: Average tumor size (mm^3)
# output: bare number, implied unit mm^3

[
  {
    "Compound": "NC(=O)c1nnc(OC2CCCNC2)c2cc(-c3cccc(F)c3)sc12 (stereo not shown) [Compound 6-1]",
    "Average tumor size (mm^3)": 677.06
  }
]

Entry under review: NC(=O)c1nnc(N[C@H]2CCCNC2)c2cc(-c3cccc(F)c3)sc12 [Compound 6] . Reported Average tumor size?
666.40

What value of Average tumor size has been reported for the following compound? NC(=O)c1nnc(SC2CCCNC2)c2cc(-c3cccc(F)c3)sc12 (stereo not shown) [Compound 6-2]
698.18

Query: Average tumor size; subject: NC(=O)c1nnc(CC2CCCNC2)c2cc(-c3cc(Cl)cc(Cl)c3)sc12 (stereo not shown) [Compound 6-3]
718.27

* * *

- Protocol description: Mice body weight in CT-26 WT tumor model (Example 2)
- Format: in vivo, BALB/c female mice
- Measurement setup: Day 12; compounds 15 mg/kg tail vein once per day; anti-m-PD-1 10 mg/kg IP once every five days
Experimental readout: Average body weight (g)
// units = g; emit number, no label

Item NC(=O)c1nnc(N[C@H]2CCCNC2)c2cc(-c3cccc(F)c3)sc12 [Compound 6] has what recorded Average body weight?
16.87

May I ask what Average body weight has been recorded for NC(=O)c1nnc(CC2CCCNC2)c2cc(-c3cc(Cl)cc(Cl)c3)sc12 (stereo not shown) [Compound 6-3] ?
16.51

Which Average body weight reading was recorded for the molecule NC(=O)c1nnc(OC2CCCNC2)c2cc(-c3cccc(F)c3)sc12 (stereo not shown) [Compound 6-1] ?
16.89

Fill in the blank: the reported Average body weight of NC(=O)c1nnc(SC2CCCNC2)c2cc(-c3cccc(F)c3)sc12 (stereo not shown) [Compound 6-2] is ____.
16.78

* * *

- Protocol description: Mice body weight in CT-26 WT tumor model (Example 2)
- Format: in vivo, BALB/c female mice
- Measurement setup: Day 16; compounds 15 mg/kg tail vein once per day; anti-m-PD-1 10 mg/kg IP once every five days
Average body weight values, listed per item
Report as a plain number; the unit g is understood.

[
  {
    "Molecule": "NC(=O)c1nnc(CC2CCCNC2)c2cc(-c3cc(Cl)cc(Cl)c3)sc12 (stereo not shown)",
    "Assay value": 17.91
  },
  {
    "Molecule": "NC(=O)c1nnc(N[C@H]2CCCNC2)c2cc(-c3cccc(F)c3)sc12",
    "Assay value": 17.88
  },
  {
    "Molecule": "NC(=O)c1nnc(SC2CCCNC2)c2cc(-c3cccc(F)c3)sc12 (stereo not shown)",
    "Assay value": 17.62
  }
]

Now examine the next entry.
Endpoint output: Average body weight of NC(=O)c1nnc(OC2CCCNC2)c2cc(-c3cccc(F)c3)sc12 (stereo not shown) . Value?
17.79
